Listed next: entries and their corresponding log10 of MIC.
- Tested on: Nakaseomyces glabratus
- assay: Antimicrobial activity against Candida glabrata 537 after 24 hrs by serial dilution method
- Assay type: functional
- measurement_conditions: Nakaseomyces glabratus, 537, 24 h
property_label: log10 of MIC (log10 of the value in µg/mL)

given_smiles	system_name	log10 of MIC
C[C@@H](N1CCc2sc(-c3ccc(Cl)cc3)cc2C1)[C@](O)(Cn1cncn1)c1ccc(F)cc1F	Nakaseomyces glabratus	1.20
C[C@@H](N1CCc2sc(-c3cccnc3)cc2C1)[C@](O)(Cn1cncn1)c1ccc(F)cc1F	Nakaseomyces glabratus	0.30
C[C@@H](N1CCc2sc(-c3cncnc3)cc2C1)[C@](O)(Cn1cncn1)c1ccc(F)cc1F	Nakaseomyces glabratus	0.90
COc1ccc(-c2nc3c(s2)CN([C@H](C)[C@](O)(Cn2cncn2)c2ccc(F)cc2F)CC3)cc1	Nakaseomyces glabratus	0.00
C[C@@H](N1CCn2nc(-c3cccc(F)c3)nc2C1)[C@](O)(Cn1cncn1)c1ccc(F)cc1F	Nakaseomyces glabratus	-0.60
C[C@@H](N1CCn2nc(C(F)(F)F)nc2C1)[C@](O)(Cn1cncn1)c1ccc(F)cc1F	Nakaseomyces glabratus	0.00
C[C@@H](N1CCn2nnc(-c3ccccc3)c2C1)[C@](O)(Cn1cncn1)c1ccc(F)cc1F	Nakaseomyces glabratus	0.90
C[C@@H]1[C@H](O)[C@@H](C)/C=C/C=C/C=C/C=C/C=C/C=C/C=C/[C@H](O[C@@H]2O[C@H](C)[C@@H](O)[C@H](N)[C@@H]2O)C[C@@H]2O[C@](O)(C[C@@H](O)C[C@@H](O)[C@H](O)CC[C@@H](O)C[C@@H](O)CC(=O)O[C@H]1C)C[C@H](O)[C@H]2C(=O)O	Nakaseomyces glabratus	-0.30
C[C@@H](N1CCn2nncc2C1)[C@](O)(Cn1cncn1)c1ccc(F)cc1F	Nakaseomyces glabratus	-0.30
C[C@@H](N1CCn2nc(-c3ccc(C#N)nc3)nc2C1)[C@](O)(Cn1cncn1)c1ccc(F)cc1F	Nakaseomyces glabratus	-2.11
COc1ccc(-c2nc3n(n2)CCN([C@H](C)[C@](O)(Cn2cncn2)c2ccc(F)cc2F)C3)cc1	Nakaseomyces glabratus	-0.90
C[C@@H](N1CCc2nc(-c3cncc(C#N)c3)sc2C1)[C@](O)(Cn1cncn1)c1ccc(F)cc1F	Nakaseomyces glabratus	-0.30
C[C@@H](N1CCn2nc(-c3ccc(F)cc3F)nc2C1)[C@](O)(Cn1cncn1)c1ccc(F)cc1F	Nakaseomyces glabratus	-0.30
C[C@@H](N1CCc2nc(-c3ccncc3)sc2C1)[C@](O)(Cn1cncn1)c1ccc(F)cc1F	Nakaseomyces glabratus	-0.90
C[C@@H](N1CCc2nc(-c3cccs3)sc2C1)[C@](O)(Cn1cncn1)c1ccc(F)cc1F	Nakaseomyces glabratus	-0.30
C[C@@H](N1CCn2ncnc2C1)[C@](O)(Cn1cncn1)c1ccc(F)cc1F	Nakaseomyces glabratus	-0.30

====

Listed next: entries and their corresponding MIC.
- Test system: Nakaseomyces glabratus
- assay: Antimicrobial activity against Candida glabrata 537 after 24 hrs by serial dilution method
- Assay type: functional
- measurement_conditions: Nakaseomyces glabratus, 537, 24 h
property_label: MIC (µg/mL)

> print(dat)
                                given.smiles             system.name  test.result
 1  COc1ccc(-c2cn3c(n2)CN([C@H](C)[C@](O)(Cn2cncn2)c2ccc(F)cc2F)CC3)cc1  Nakaseomyces glabratus        0.125
 2  Cc1cccc(-c2nc3n(n2)CCN([C@H](C)[C@](O)(Cn2cncn2)c2ccc(F)cc2F)C3)c1  Nakaseomyces glabratus        0.125
 3  C[C@@H](N1CCn2nc(-c3cccc(C#N)c3)nc2C1)[C@](O)(Cn1cncn1)c1ccc(F)cc1F  Nakaseomyces glabratus          0.5
 4  CC(C)c1ccc(-c2nc3n(n2)CCN([C@H](C)[C@](O)(Cn2cncn2)c2ccc(F)cc2F)C3)cc1  Nakaseomyces glabratus            1
 5  COc1ccc(-c2nc3n(n2)CCN([C@H](C)[C@](O)(Cn2cncn2)c2ccc(F)cc2F)C3)cn1  Nakaseomyces glabratus          0.5
 6  C[C@@H](N1CCc2nc(-c3cccc(Cl)c3)sc2C1)[C@](O)(Cn1cncn1)c1ccc(F)cc1F  Nakaseomyces glabratus            4
 7  COc1ccc(-c2nc3c(s2)CN([C@H](C)[C@](O)(Cn2cncn2)c2ccc(F)cc2F)CC3)cn1  Nakaseomyces glabratus          0.5
 8  Cc1cccc(-c2nc3c(s2)CN([C@H](C)[C@](O)(Cn2cncn2)c2ccc(F)cc2F)CC3)c1  Nakaseomyces glabratus            4
 9  Cc1ccc(-c2nc3c(s2)CN([C@H](C)[C@](O)(Cn2cncn2)c2ccc(F)cc2F)CC3)cc1  Nakaseomyces glabratus            1
10  C[C@@H](N1CCn2nc(-c3ccc(C(F)(F)F)cc3)nc2C1)[C@](O)(Cn1cncn1)c1ccc(F)cc1F  Nakaseomyces glabratus        0.125
11  CC(C)c1ccc(-c2nc3c(s2)CN([C@H](C)[C@](O)(Cn2cncn2)c2ccc(F)cc2F)CC3)cc1  Nakaseomyces glabratus            1
12  C[C@@H](N1CCn2cc(-c3cccc(F)c3)nc2C1)[C@](O)(Cn1cncn1)c1ccc(F)cc1F  Nakaseomyces glabratus         0.25
13  C[C@@H](N1CCc2sc(-c3ccccc3)cc2C1)[C@](O)(Cn1cncn1)c1ccc(F)cc1F  Nakaseomyces glabratus            4
14  C[C@@H](N1CCc2sc(-c3ccc(C#N)cc3)cc2C1)[C@](O)(Cn1cncn1)c1ccc(F)cc1F  Nakaseomyces glabratus            8
15  Cc1ncc(-c2nc3c(s2)CN([C@H](C)[C@](O)(Cn2cncn2)c2ccc(F)cc2F)CC3)cn1  Nakaseomyces glabratus         0.25
16  C[C@@H](N1CCc2sc(-c3cccc(C(F)(F)F)c3)cc2C1)[C@](O)(Cn1cncn1)c1ccc(F)cc1F  Nakaseomyces glabratus            1
17  C[C@@H](N1CCn2nc(-c3ccc(Cl)cc3)nc2C1)[C@](O)(Cn1cncn1)c1ccc(F)cc1F  Nakaseomyces glabratus          0.5
18  C[C@@H](N1CCn2cc(-c3ccc(C(F)(F)F)cc3)nc2C1)[C@](O)(Cn1cncn1)c1ccc(F)cc1F  Nakaseomyces glabratus         0.25
19  C[C@@H](N1CCn2nnc(-c3ccncc3)c2C1)[C@](O)(Cn1cncn1)c1ccc(F)cc1F  Nakaseomyces glabratus            8
20  C[C@@H](N1CCn2nc(Br)nc2C1)[C@](O)(Cn1cncn1)c1ccc(F)cc1F  Nakaseomyces glabratus          0.5
21  C[C@@H](N1CCn2cc(-c3ccc(F)cc3F)nc2C1)[C@](O)(Cn1cncn1)c1ccc(F)cc1F  Nakaseomyces glabratus        0.125
22  C[C@@H](N1CCc2sc(Br)cc2C1)[C@](O)(Cn1cncn1)c1ccc(F)cc1F  Nakaseomyces glabratus            4
23  C[C@@H](N1CCc2cc(-c3ccc(C#N)nc3)sc2C1)[C@](O)(Cn1cncn1)c1ccc(F)cc1F  Nakaseomyces glabratus            4
24  C[C@@H](N1CCn2nc(-c3ccccc3)nc2C1)[C@](O)(Cn1cncn1)c1ccc(F)cc1F  Nakaseomyces glabratus        0.125
25  C[C@@H](N1CCc2nc(-c3ccc(Cl)cc3)sc2C1)[C@](O)(Cn1cncn1)c1ccc(F)cc1F  Nakaseomyces glabratus            1
26  CC(C)c1cccc(-c2nc3n(n2)CCN([C@H](C)[C@](O)(Cn2cncn2)c2ccc(F)cc2F)C3)c1  Nakaseomyces glabratus            4
27  C[C@@H](N1CCn2cc(-c3cccc(C(F)(F)F)c3)nc2C1)[C@](O)(Cn1cncn1)c1ccc(F)cc1F  Nakaseomyces glabratus         0.25
28  C[C@@H](N1CCc2sc(-c3cccc(Cl)c3)cc2C1)[C@](O)(Cn1cncn1)c1ccc(F)cc1F  Nakaseomyces glabratus            8
29  C[C@@H](N1CCc2cc(Br)sc2C1)[C@](O)(Cn1cncn1)c1ccc(F)cc1F  Nakaseomyces glabratus            1
30  COc1cccc(-c2cn3c(n2)CN([C@H](C)[C@](O)(Cn2cncn2)c2ccc(F)cc2F)CC3)c1  Nakaseomyces glabratus        0.125
31  COc1cccc(-c2nc3c(s2)CN([C@H](C)[C@](O)(Cn2cncn2)c2ccc(F)cc2F)CC3)c1  Nakaseomyces glabratus            1
32  C[C@@H](N1CCc2sc(-c3cccc(C#N)c3)cc2C1)[C@](O)(Cn1cncn1)c1ccc(F)cc1F  Nakaseomyces glabratus            8
33  C[C@@H](N1CCc2sc(-c3ccc(C#N)nc3)cc2C1)[C@](O)(Cn1cncn1)c1ccc(F)cc1F  Nakaseomyces glabratus            2
